src = PubChem BioAssay AID1224904

Here, each record is paired with measured activity change, negative = inhibition data.
experiment: DUX4 transcriptional activity inhibition in cells – 293T cells, Gaussia and Italica luciferase, primary screen (AID 1224904); conditions: 293T-iDUX4 ZSCAN4-Gaussia luciferase reporter, 24 h; measured here: Italica tet-on control reporter; stronger effect = lower value; concentration not given here;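 for activity change, negative = inhibition: 0% = median of neutral control wells and -100% = median of positive control wells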
The campaign covered roughly 37,000 compounds. About 290 (0.78%) were called active. Another 10% or so got no clear call; they are omitted. The list comes from a sample in which actives are over-represented; it also holds close analogues and randomly drawn compounds.
Your answer should be a number followed by the unit of measure.

> print(dat)
                                   compound   result
1  C[C@@H]1CN([C@@H](C)CO)C(=O)c2c(c3ccccc3n2C)-c2ccccc2CO[C@@H]1CN(C)Cc1cccc(C(=O)O)c1       5%
2  CO[C@@H](CN(C)C(=O)Nc1ccc(F)cc1)[C@H](C)CN(Cc1ccccc1Cl)[C@@H](C)CO    -1.3%
3  C[C@@H](NC(=O)C[C@H]1CC[C@@H](NC(=O)Cc2ccccn2)[C@@H](CO)O1)c1ccccc1    1.74%
4  O=C(C[C@@H]1CC[C@@H]2[C@H](COC[C@H](O)CN2C(=O)c2cccnc2)O1)NC1Cc2ccccc2C1   -3.66%
5  C[C@H]1CN([C@@H](C)CO)C(=O)c2c(c3ccccc3n2C)-c2ccccc2CO[C@H]1CN(C)Cc1ccc2c(c1)OCO2  -0.444%
6  Cc1ccccc1-c1ccc([C@H]2[C@H](CO)N3C(=O)CN(C(=O)c4cccnc4)C[C@@H]23)cc1    11.7%
7  CC=Cc1ccc2n(c1=O)C[C@@H]1[C@@H](CO)[C@H](C(=O)NCCCN3CCOCC3)[C@H]2N1Cc1cocn1 (mixture of isomers)    4.32%

Next item in the queue.
-- ask Data request, read-out activity change, negative = inhibition, for `CCC(=O)N(C)C[C@H]1[C@H](c2ccc(-c3ccccc3F)cc2)[C@@H](CO)N1C(C)=O`
-- reply 7.42%

====

test: DUX4 transcriptional activity inhibition in cells – 293T cells, Gaussia and Italica luciferase, primary screen (AID 1224904); conditions: 293T-iDUX4 ZSCAN4-Gaussia luciferase reporter, 24 h; measured here: selective DUX4 reporter inhibition; stronger effect = lower value; concentration not given here
Hit rate of the full screen: of about 37,000 compounds, about 290 (0.78%) were called active. Another 10% or so got no clear call; they are omitted. Many of the other results were omitted from the sample, so actives are more common in it than they were.
Recorded Endpoint: Gaussia minus Italica difference
Provide a numeric answer, followed by its unit.

-- ask Consider the compound COc1ccccc1NC(=O)N1[C@@H]2CNC[C@H]1C2c1ccc(-c2ccccc2C)cc1 (some centres undefined) and give its measured Gaussia minus Italica difference.
-- reply 13.7%

-- ask GET /values?readout=Gaussia minus Italica difference&item= `CCCNC(=O)N1C[C@@H](O)COC[C@H]2O[C@@H](CC(=O)NCCCN3CCOCC3)CC[C@@H]21`
-- reply -7.76%

-- ask If you can, please state the reported Gaussia minus Italica difference value of `COc1cccc(C(=O)Nc2ccc3c(c2)C(=O)N(C)[C@H]2CC[C@@H](CC(=O)N[C@H](C)c4ccccc4)O[C@H]2CO3)c1` .
-- reply -1.51%

-- ask # get_value(readout='Gaussia minus Italica difference', item= `CCS(=O)(=O)N1[C@H](CO)[C@@H](c2ccc(C#CC(C)C)cc2)[C@@H]1C#N` )
-- reply -0.33%
